All values here come from ChEMBL document CHEMBL5620345.

System: Enterobacterales
Assay: Antibacterial activity against Carbapenem-Resistant Enterobacterales 19 expressing blaNDM-1 clinical isolates assessed as meropenem MIC incubated for 16 to 18 hrs by broth microdilution method; note: test concentration or dose not given here
Assay type: functional
Settings: time 16-18 hrs
The entries below are paired with their reported MIC.
Numeric answer only, unit µg/mL assumed.

Example cases with answers are listed next.
COMPOUND: CC(C)(C)c1ccc(C(c2cccc(-n3cc(-c4cccc(N)c4)nn3)c2)P(=O)(O)O)cc1 (centres undefined)
UNIT TEXT: µg/mL
MIC: 8
//
COMPOUND: Nc1cccc(-c2cn(-c3cccc(C(c4ccc(-c5ccccc5)cc4)P(=O)(O)O)c3)nn2)c1 (centres undefined)
UNIT TEXT: µg/mL
MIC: 8
//
COMPOUND: Nc1cccc(-c2cn(-c3cccc(C(c4cccc5ccccc45)P(=O)(O)O)c3)nn2)c1 (centres undefined)
UNIT TEXT: µg/mL
MIC: 4
//
COMPOUND: Cc1ccc(-c2ccc(C(c3cccc(-n4cc(-c5cccc(N)c5)nn4)c3)P(=O)(O)O)cc2)cc1 (centres undefined)
UNIT TEXT: µg/mL
MIC: 8
//
COMPOUND: O=P(O)(O)Cc1cccc(-n2cc(-c3ccc(Br)cc3)nn2)c1
UNIT TEXT: µg/mL
MIC: 16
//
COMPOUND: NCCOc1ccc(-c2cn(-c3cccc(C(=O)O)c3C(=O)O)nn2)cc1
UNIT TEXT: µg/mL
MIC: 64

# return recorded MIC for input COc1ccc(C(c2cccc(-n3cc(-c4cccc(N)c4)nn3)c2)P(=O)(O)O)cc1 (centres undefined)
8

# return recorded MIC for input N#Cc1ccc(C(c2cccc(-n3cc(-c4cccc(N)c4)nn3)c2)P(=O)(O)O)cc1 (centres undefined)
8

# return recorded MIC for input CCCCc1ccc(C(c2cccc(-n3cc(-c4cccc(N)c4)nn3)c2)P(=O)(O)O)cc1 (centres undefined)
8

# return recorded MIC for input CCc1ccc(C(c2cccc(-n3cc(-c4cccc(N)c4)nn3)c2)P(=O)(O)O)cc1 (centres undefined)
8

# return recorded MIC for input Nc1cccc(-c2cn(-c3cccc(C(c4ccc(Br)cc4)P(=O)(O)O)c3)nn2)c1 (centres undefined)
8

# return recorded MIC for input Nc1cccc(-c2cn(-c3cccc(C(c4ccc(-c5ccc(Br)cc5)cc4)P(=O)(O)O)c3)nn2)c1 (centres undefined)
8

# return recorded MIC for input Nc1cccc(-c2cn(-c3cccc(C(c4ccc(Cl)cc4)P(=O)(O)O)c3)nn2)c1 (centres undefined)
8

# return recorded MIC for input CSc1ccc(C(c2cccc(-n3cc(-c4cccc(N)c4)nn3)c2)P(=O)(O)O)cc1 (centres undefined)
8

# return recorded MIC for input O=[N+]([O-])c1ccc(Cn2cc(-c3cccc(B(O)O)c3)nn2)cc1
32

# return recorded MIC for input CCCc1ccc(C(c2cccc(-n3cc(-c4cccc(N)c4)nn3)c2)P(=O)(O)O)cc1 (centres undefined)
8

# return recorded MIC for input O=P(O)(O)Cc1cccc(-n2cc(-c3ccccc3Br)nn2)c1
16

# return recorded MIC for input Cc1ccc(C(c2cccc(-n3cc(-c4cccc(N)c4)nn3)c2)P(=O)(O)O)cc1 (centres undefined)
8

# return recorded MIC for input Nc1ccccc1-c1cn(-c2cccc(CP(=O)(O)O)c2)nn1
8

###

Test system: Escherichia coli
Assay: Antibacterial activity against Escherichia coli BAA2452 expressing blaNDM-1 clinical isolates assessed as fold potentiation incubated for 16 to 18 hrs by broth microdilution method; note: test concentration or dose not given here
Assay type: functional
Conditions: time 16-18 hrs
The entries below are paired with their reported fold change (FC).
Output: the number by itself.

Example cases with answers are listed next.
COMPOUND: Nc1ccccc1-c1cn(-c2cccc(CP(=O)(O)O)c2)nn1
fold change (FC): 4

COMPOUND: Nc1cccc(-c2cn(-c3cccc(C(c4ccc(-c5ccccc5)cc4)P(=O)(O)O)c3)nn2)c1 (stereo not drawn)
fold change (FC): 8

COMPOUND: CCCCc1ccc(C(c2cccc(-n3cc(-c4cccc(N)c4)nn3)c2)P(=O)(O)O)cc1 (stereo not drawn)
fold change (FC): 16

COMPOUND: CSc1ccc(C(c2cccc(-n3cc(-c4cccc(N)c4)nn3)c2)P(=O)(O)O)cc1 (stereo not drawn)
fold change (FC): 8

COMPOUND: COc1ccc(C(c2cccc(-n3cc(-c4cccc(N)c4)nn3)c2)P(=O)(O)O)cc1 (stereo not drawn)
fold change (FC): 8

Please look at the following compound next.
# return recorded fold change (FC) for input N#Cc1ccc(C(c2cccc(-n3cc(-c4cccc(N)c4)nn3)c2)P(=O)(O)O)cc1 (stereo not drawn)
8
